The measurements presented in this section are drawn from patent US20210155689A1.

# Target desc: T1, human LAG-3 on cells (HEK293-hLAG-3 stable cell line) (human, UniProt P18627 23-525)
# T1 sequence: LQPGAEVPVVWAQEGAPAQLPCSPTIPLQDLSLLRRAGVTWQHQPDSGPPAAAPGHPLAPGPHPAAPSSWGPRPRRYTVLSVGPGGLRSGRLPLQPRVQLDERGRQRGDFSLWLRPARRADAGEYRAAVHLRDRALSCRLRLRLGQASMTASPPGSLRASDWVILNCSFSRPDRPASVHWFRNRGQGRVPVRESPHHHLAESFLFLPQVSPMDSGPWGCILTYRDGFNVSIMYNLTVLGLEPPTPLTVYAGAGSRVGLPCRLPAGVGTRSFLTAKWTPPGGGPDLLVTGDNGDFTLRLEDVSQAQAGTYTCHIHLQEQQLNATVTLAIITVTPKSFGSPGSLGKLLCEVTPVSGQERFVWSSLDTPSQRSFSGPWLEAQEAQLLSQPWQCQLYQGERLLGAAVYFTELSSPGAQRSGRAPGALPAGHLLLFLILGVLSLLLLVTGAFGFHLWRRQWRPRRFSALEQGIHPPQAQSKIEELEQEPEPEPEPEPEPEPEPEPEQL
# Measurement notes: cell-based or functional assay
Reported metric: IL-2 production, antigen-specific T lymphocyte stimulation test, 0.4 ug/ml, N = 1

These solved cases illustrate the format of a correct answer.
{"Binder": "105F1E10 mouse-human chimeric antibody (antibody, V domains shown, also called mAb009-105F1E10) VH: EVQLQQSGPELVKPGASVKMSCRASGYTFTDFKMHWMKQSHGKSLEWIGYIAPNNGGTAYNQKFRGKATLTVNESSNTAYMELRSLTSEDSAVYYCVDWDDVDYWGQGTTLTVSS VL: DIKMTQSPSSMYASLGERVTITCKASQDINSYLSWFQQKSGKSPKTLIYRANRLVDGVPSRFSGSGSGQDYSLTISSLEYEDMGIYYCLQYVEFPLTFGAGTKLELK", "Value reported": "779 pg/mL"}
{"Binder": "409D4E10 mouse-human chimeric antibody (antibody, V domains shown, also called mAb112-409D4E10) VH: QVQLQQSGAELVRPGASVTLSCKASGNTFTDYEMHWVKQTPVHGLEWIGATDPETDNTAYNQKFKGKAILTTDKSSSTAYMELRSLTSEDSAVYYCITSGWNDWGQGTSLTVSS VL: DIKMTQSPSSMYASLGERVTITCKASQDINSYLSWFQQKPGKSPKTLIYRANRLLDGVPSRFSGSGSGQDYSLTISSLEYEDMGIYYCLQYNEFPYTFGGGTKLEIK", "Value reported": "804 pg/mL"}
{"Binder": "405B8H3 mouse-human chimeric antibody (antibody, V domains shown, also called mAb103-405B8H3) VH: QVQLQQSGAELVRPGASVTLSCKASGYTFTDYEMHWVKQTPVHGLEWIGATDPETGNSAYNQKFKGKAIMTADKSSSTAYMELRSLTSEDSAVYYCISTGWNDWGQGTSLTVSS VL: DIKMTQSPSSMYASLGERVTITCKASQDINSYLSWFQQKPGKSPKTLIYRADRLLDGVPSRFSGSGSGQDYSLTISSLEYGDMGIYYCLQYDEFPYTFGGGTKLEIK", "Value reported": "883 pg/mL"}

Q: State its IL-2 production, antigen-specific T lymphocyte stimulation test, 0.4 ug/ml, N = 1: 556F6B8 mouse-human chimeric antibody (antibody, V domains shown, also called mAb123-556F6B8; 556F8B8) VH: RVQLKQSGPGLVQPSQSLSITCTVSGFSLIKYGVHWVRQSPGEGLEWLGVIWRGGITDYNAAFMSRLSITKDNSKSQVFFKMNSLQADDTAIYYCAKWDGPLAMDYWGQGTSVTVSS VL: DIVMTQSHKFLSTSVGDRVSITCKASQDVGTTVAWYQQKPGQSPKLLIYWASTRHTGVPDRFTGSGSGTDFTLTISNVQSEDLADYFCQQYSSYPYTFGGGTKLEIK
Ans: 794 pg/mL

Q: State its IL-2 production, antigen-specific T lymphocyte stimulation test, 0.4 ug/ml, N = 1: 409B11E12 mouse-human chimeric antibody (antibody, V domains shown, also called mAb104-409B11E12) VH: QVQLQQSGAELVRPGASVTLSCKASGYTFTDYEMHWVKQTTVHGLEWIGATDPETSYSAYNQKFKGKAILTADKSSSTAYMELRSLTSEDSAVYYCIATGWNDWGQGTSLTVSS VL: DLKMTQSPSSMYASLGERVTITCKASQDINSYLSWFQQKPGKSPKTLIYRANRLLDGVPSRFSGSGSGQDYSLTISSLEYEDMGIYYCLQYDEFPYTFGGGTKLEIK
Ans: 835 pg/mL
